tested on: human fecal microflora; test: In vitro fermentation of fagopyritol-enriched buckwheat extract by human fecal microflora; type: in vitro ADME; conditions: Controls (nutritive medium in place of fecal inoculum), 12 hrs, 40° C., anaerobic
Record YES whenever concentration of inositols and fagopyritols is at 70 µg/750 µL or higher; record NO when lower.

OCC1O[C@H](OC2C(O)[C@H](O)C(O)C(O)[C@@H]2O)C(O)C(O)[C@H]1O (stereo partly drawn); YES
OC1C(O)C(O)C(O)C(O)C1O (stereo not drawn); NO
OCC1O[C@@H](O[C@H]2C(O)C(O)[C@H](O)C(O)C2O)C(O)C(O)[C@H]1O (stereo partly drawn); YES
OCC1O[C@H](OCC2O[C@@H](O[C@H]3C(O)C(O)[C@H](O)C(O)C3O)C(O)C(O)[C@H]2O)C(O)C(O)[C@H]1O (stereo partly drawn); NO
OCC1O[C@H](OCC2O[C@H](OC3C(O)[C@H](O)C(O)C(O)[C@@H]3O)C(O)C(O)[C@H]2O)C(O)C(O)[C@H]1O (stereo partly drawn); NO

We next turn to a different compound, shown below.
Reported concentration of inositols and fagopyritols at or above 70 µg/750 µL? O[C@H]1[C@H](O)[C@@H](O)[C@H](O)[C@@H](O)[C@H]1O
NO

* * *

test system: bovine liver β-D-galactosidase (EC 3.2.1.23); assay: Enzymatic hydrolysis with β-galactosidase; format: biochemical; settings: 0.5 units in 200 μL water at 37° C. for 24 h; products by GC
measurementKind: hydrolysis by β-galactosidase (in words)

OCC1O[C@H](OCC2O[C@H](OC3C(O)[C@H](O)C(O)C(O)[C@@H]3O)C(O)C(O)[C@H]2O)C(O)C(O)[C@H]1O (stereo partly drawn); not by P-D-galactosidase
OCC1O[C@@H](O[C@H]2C(O)C(O)[C@H](O)C(O)C2O)C(O)C(O)[C@H]1O (stereo partly drawn); not by β-D-galactosidase
OCC1O[C@H](OC2C(O)[C@H](O)C(O)C(O)[C@@H]2O)C(O)C(O)[C@H]1O (stereo partly drawn); not by β-D-galactosidase
OCC1O[C@H](OCC2O[C@@H](O[C@H]3C(O)C(O)[C@H](O)C(O)C3O)C(O)C(O)[C@H]2O)C(O)C(O)[C@H]1O (stereo partly drawn); not by P-D-galactosidase

* * *

tested on: human fecal microflora; experiment: In vitro fermentation of fagopyritol-enriched buckwheat extract by human fecal microflora; type: in vitro ADME; conditions: Controls (nutritive medium in place of fecal inoculum), 6 hrs, 40° C., anaerobic
Decision: concentration of inositols and fagopyritols >= 90 µg/750 µL yields 1.0, all other cases yield 0.0.

Reference set, count: 5
OCC1O[C@H](OC2C(O)[C@H](O)C(O)C(O)[C@@H]2O)C(O)C(O)[C@H]1O (stereo partly drawn); 1.0
OCC1O[C@H](OCC2O[C@@H](O[C@H]3C(O)C(O)[C@H](O)C(O)C3O)C(O)C(O)[C@H]2O)C(O)C(O)[C@H]1O (stereo partly drawn); 0.0
OC1C(O)C(O)C(O)C(O)C1O (stereo not drawn); 1.0
OCC1O[C@H](OCC2O[C@H](OC3C(O)[C@H](O)C(O)C(O)[C@@H]3O)C(O)C(O)[C@H]2O)C(O)C(O)[C@H]1O (stereo partly drawn); 0.0
OCC1O[C@@H](O[C@H]2C(O)C(O)[C@H](O)C(O)C2O)C(O)C(O)[C@H]1O (stereo partly drawn); 0.0

API: the following record is the query input.
// inclusive: concentration of inositols and fagopyritols at least 90 µg/750 µL? input: O[C@H]1[C@H](O)[C@@H](O)[C@H](O)[C@@H](O)[C@H]1O
0.0

All figures here come from patent US6825173B2.
